Overview of reported Antiovulatory activity across a group of molecules:
# Species: Rattus norvegicus
# experimentNotes: Antiovulatory activity was expressed as the percentage of 10 rats blocked at a dose 3 ug.
# Format: functional
Residues, ends and D or L forms follow the SMILES beside them.
Kindly provide the numeric value in % only, without the unit symbol.

Exercise: Name the recorded Antiovulatory activity for CC(=O)N[C@H](Cc1ccc2ccccc2c1)C(=O)N[C@H](Cc1ccc2ccccc2c1)C(=O)N[C@H](Cc1c[nH]cn1)C(=O)N[C@@H](CO)C(=O)N[C@@H](Cc1ccc(O)cc1)C(=O)N[C@H](CCCN=C(N)N)C(=O)N[C@@H](Cc1ccccc1)C(=O)N[C@@H](CCCN=C(N)N)C(=O)N1CCC[C@H]1C(=O)N[C@H](C)C(N)=O .
Key: 0

Exercise: Name the recorded Antiovulatory activity for CC(=O)N[C@H](Cc1ccc2ccccc2c1)C(=O)N[C@H](Cc1ccc2ccccc2c1)C(=O)N[C@H](Cc1ccccc1)C(=O)N[C@@H](CO)C(=O)N[C@@H](Cc1ccc(O)cc1)C(=O)N[C@H](CCCN=C(N)N)C(=O)N[C@@H](Cc1ccccc1)C(=O)N[C@@H](CCCN=C(N)N)C(=O)N1CCC[C@H]1C(=O)N[C@H](C)C(N)=O .
Key: 100

Exercise: Name the recorded Antiovulatory activity for CC(=O)N[C@H](Cc1c[nH]c2ccccc12)C(=O)N[C@H](Cc1ccccc1)C(=O)N[C@H](Cc1ccccc1)C(=O)N[C@@H](CO)C(=O)N[C@@H](Cc1ccc(O)cc1)C(=O)N[C@H](CCCN=C(N)N)C(=O)N[C@@H](Cc1ccccc1)C(=O)N[C@@H](CCCN=C(N)N)C(=O)N1CCC[C@H]1C(=O)N[C@H](C)C(N)=O .
Key: 0

Exercise: Name the recorded Antiovulatory activity for CC(=O)N[C@H](Cc1ccc(Cl)cc1)C(=O)N[C@H](Cc1ccc(Cl)cc1)C(=O)N[C@H](Cc1c[nH]c2ccccc12)C(=O)N[C@@H](CO)C(=O)N[C@@H](Cc1ccc(O)cc1)C(=O)N[C@H](CCCN=C(N)N)C(=O)N[C@@H](Cc1ccccc1)C(=O)N[C@@H](CCCN=C(N)N)C(=O)N1CCC[C@H]1C(=O)N[C@H](C)C(N)=O (HELM PEPTIDE1{[ac].[O=C([C@@H](Cc1ccc(Cl)cc1)N[*:1])[*:2]].[O=C([C@@H](Cc1ccc(Cl)cc1)N[*:1])[*:2]].[dW].S.Y.[dR].F.R.P.[dA].[am]}$$$$V2.0) .
Key: 100

Data provenance is ChEMBL document CHEMBL1123924.
